# protocol-notes: basal HepG2 mitochondrial membrane potential changes, profiling panel, cell-based, JC-1 fluorescence, 24 h, 100 nL compound (AID 1167); further: test concentration not given here
# measurement-context: higher = more signal
z-score values, listed per item
Number only, please.

CC(=O)n1cc(C(O)C2C=CC3C(=O)N(c4ccccc4)C(=O)C3N2Nc2ccc(C(C)C)cc2)c2ccccc21 (stereo not given) = -0.975
CC1(C)C(=O)C(c2ccccc2)=C2CN3C(=O)N(CCc4ccccc4)C(=O)C3(Cc3ccc(F)cc3)C=C21 (stereo not given) = 0.39

Exam item: // returns reported z-score for input CCC(CC)C(O)C1C=CC2C(=O)N(c3ccccc3)C(=O)C2N1Nc1ccc([N+](=O)[O-])cc1 (stereo not given)
Marked response: -2.25

Exam item: Now this one: C=CCC(OC(C)=O)[C@@H]1[C@@H](N(Cc2cc3ccccc3o2)C(=O)c2ccc(-c3ccccc3)cc2)c2cc(OCCCO)ccc2N1C(=O)Cc1ccc(OC)cc1 (stereo not given in full)
Marked response: 1.23

Exam item: Would you kindly repeat that for `C[C@]1(C(=O)NCCN2CCOCC2)c2ccccc2C(=O)N(Cc2cc(F)cc(C(F)(F)F)c2)[C@H]1c1ccc(CO)cc1` ?
Marked response: 2.36
